All figures here come from PubChem BioAssay (NCI).

system: OVCAR-5 ovarian; assay: NCI-60 one-dose screen, 48 h (100 = growth as untreated, 0 = no growth, -100 = all killed); details: 10 µM unless noted
About 83,000 compounds went through this panel and 20% of them were active in at least one assay; those are over-represented in the sample as a whole.
observation-type: growth (%)
Answer with a number only, understood to be in %.

Q. Name the value of growth reported for O=C1c2ccccc2OC=C(c2ccccc2)N1CCCCN1CCCCC1 when tested on OVCAR-5 ovarian.
A. 101

Q. Name the value of growth reported for O=C(Nc1ccccc1F)Nc1ccccc1Cl when tested on OVCAR-5 ovarian.
A. 102

Q. Name the value of growth reported for Nc1ncnc2c1c(-c1ccc(Oc3ccccc3)cc1)nn2C[C@H]1SSC[C@@H]1O when tested on OVCAR-5 ovarian.
A. 82.1

Q. Name the value of growth reported for CCCN1C(=O)CSC1=Nc1ccc2cc3ccc(N=C4SCC(=O)N4CCC)cc3nc2c1 when tested on OVCAR-5 ovarian.
A. 89.2

Q. Name the value of growth reported for O=S(=O)(Nc1cccc2cc(OS(=O)(=O)c3ccccc3)ccc12)c1ccccc1 when tested on OVCAR-5 ovarian.
A. 91

Q. Name the value of growth reported for O=[N+]([O-])c1cccc2cc(S(=O)(=O)O)ccc12 when tested on OVCAR-5 ovarian.
A. 107

Q. Name the value of growth reported for CC(Cl)(CCl)CS(=O)(=O)c1ccc(Cl)cc1 (stereo unspecified) when tested on OVCAR-5 ovarian.
A. 113

Q. Name the value of growth reported for Cn1c(I)c(C#C[Si](C)(C)C)c(=O)[nH]c1=O when tested on OVCAR-5 ovarian.
A. 77.7

Q. Name the value of growth reported for CCCC(=O)Oc1ccc(/C(=C(\C)c2ccc(Cl)cc2)c2ccc(OCCN(CC)CC)cc2)cc1 when tested on OVCAR-5 ovarian.
A. 30.4

Q. Name the value of growth reported for O=C(Nc1ccc(-n2ccc3c(NC(=O)c4ccccc4)nccc32)cc1)Nc1ccc(Cl)c(Cl)c1 when tested on OVCAR-5 ovarian.
A. 50

Q. Name the value of growth reported for CC1(C)N=C(N)N=C(N)N1c1cccc(CCCCc2ccccc2)c1 when tested on OVCAR-5 ovarian.
A. 38.5

---

system: K-562 leukemia; assay: NCI-60 one-dose screen, 48 h; settings: 10 µM unless noted
Compounds without any hit were thinned out: in the full panel of roughly 83,000, 20% have a hit. Calls of active or inactive are those of the source. Rule for the calls: active = growth percent below 10; inactive = the rest.
API: response.call in active, inactive

Q. How was CCOc1ccc(Cc2nccc3cc(OCC)c(OCC)cc23)cc1OCC classified in this test?
A. inactive

Q. How was COc1ccccc1P(c1ccccc1OC)c1ccccc1OC classified in this test?
A. inactive

Q. How was Nc1ccc(S(=O)(=O)Nc2ccnn2-c2ccccc2)cc1 classified in this test?
A. inactive

Q. How was Cc1cc2c(cc1C)N(C(=O)CCl)CCN2C(=O)CCl classified in this test?
A. active

Q. How was CCOc1ccc(-n2c(-c3cc(OC)c(OC)c(OC)c3)nnc2-c2ccc(OC)cc2N)cc1 classified in this test?
A. inactive

Q. How was Cc1ccc[n+](CC(=O)c2cccc3ccccc23)c1 classified in this test?
A. inactive

Q. How was C[C@]12CC[C@@H]3c4ccc(O)c(N)c4CC[C@H]3[C@@H]1CC[C@@H]2O classified in this test?
A. inactive

Q. How was CN(C)CCS(=O)(=O)Nc1cc(-c2ccc3ncnc(Nc4ccc(F)c(Cl)c4)c3c2)cnc1Cl classified in this test?
A. active

Q. How was O=C(N/N=C/c1ccccc1O)c1ccccc1O classified in this test?
A. inactive

Q. How was CCC(C)Nc1ccc(N)cc1 (stereo not given) classified in this test?
A. active

Q. How was C#C[C@@]1(O)[C@@H](CO)O[C@@H](n2cc(C(F)(F)F)c3c(N)ncnc32)[C@@H]1O classified in this test?
A. active

Q. How was COc1ccccc1N1CCN(CCCOc2ccc(OCCCN3CCN(c4ccccc4OC)CC3)c(C(=O)c3cc(OC)c(OC)c(OC)c3)c2)CC1 classified in this test?
A. inactive

Q. How was Cc1ccc2[nH]c3nc4cccnc4c(C)c3c2c1 classified in this test?
A. inactive

Q. How was Nc1ncnc2c1c(C(F)(F)F)cn2[C@@H]1O[C@H](CO)[C@@H](O)[C@H]1O classified in this test?
A. active

Q. How was O=C1OC(=O)C2C3CC(c4ccccc43)C12 (stereo not given) classified in this test?
A. inactive

Q. How was Cc1cc(NC(=O)c2cccc(C(F)(F)F)c2)ccc1-n1ccc2c(NC(=O)c3ccccc3)nccc21 classified in this test?
A. inactive

Q. How was CCOC(=O)C1CN(Cc2ccccc2)C(=O)C1=O (stereo not given) classified in this test?
A. inactive

Q. How was CO[C@H]1/C=C/C=C/C=C/C[C@H](OC(=O)[C@@H](C)NC(=O)C2CCCCC2)[C@H](C)[C@@H](O)/C(C)=C\CCC2=CC(=O)C=C(NC(=O)C1)C2=O classified in this test?
A. active

Q. How was C=C1C(=O)O[C@H]2[C@H]1CC/C(COC(=O)OC/C1=C/CC[C@@]3(C)O[C@H]3[C@H]3OC(=O)[C@@H](CN(C)C)[C@@H]3CC1)=C\CC[C@@]1(C)O[C@@H]21 classified in this test?
A. active

Q. How was C#C[C@H](O)/C=C/CCCCCCC#C[C@H](O)CC[C@@H](O)C#CCCCCCC/C=C/[C@@H](O)C#C classified in this test?
A. inactive
